Task for the reader: assign each of the following compounds its reported IC50 ratio hERG/mPGEs-1.
target: hERG potassium currents (CHO-K1 cells stably transfected with hERG) (Homo sapiens); construct: expressed in transfected cells; host or cells: CHO-K1 cells (American Tissue Culture Collection), stably transfected; experiment: Automated whole-cell patch-clamp hERG assay; assay type: cell-based; settings: ratio of hERG IC50 to human mPGEs-1 IC50
Sequence (Q12809 whole entry): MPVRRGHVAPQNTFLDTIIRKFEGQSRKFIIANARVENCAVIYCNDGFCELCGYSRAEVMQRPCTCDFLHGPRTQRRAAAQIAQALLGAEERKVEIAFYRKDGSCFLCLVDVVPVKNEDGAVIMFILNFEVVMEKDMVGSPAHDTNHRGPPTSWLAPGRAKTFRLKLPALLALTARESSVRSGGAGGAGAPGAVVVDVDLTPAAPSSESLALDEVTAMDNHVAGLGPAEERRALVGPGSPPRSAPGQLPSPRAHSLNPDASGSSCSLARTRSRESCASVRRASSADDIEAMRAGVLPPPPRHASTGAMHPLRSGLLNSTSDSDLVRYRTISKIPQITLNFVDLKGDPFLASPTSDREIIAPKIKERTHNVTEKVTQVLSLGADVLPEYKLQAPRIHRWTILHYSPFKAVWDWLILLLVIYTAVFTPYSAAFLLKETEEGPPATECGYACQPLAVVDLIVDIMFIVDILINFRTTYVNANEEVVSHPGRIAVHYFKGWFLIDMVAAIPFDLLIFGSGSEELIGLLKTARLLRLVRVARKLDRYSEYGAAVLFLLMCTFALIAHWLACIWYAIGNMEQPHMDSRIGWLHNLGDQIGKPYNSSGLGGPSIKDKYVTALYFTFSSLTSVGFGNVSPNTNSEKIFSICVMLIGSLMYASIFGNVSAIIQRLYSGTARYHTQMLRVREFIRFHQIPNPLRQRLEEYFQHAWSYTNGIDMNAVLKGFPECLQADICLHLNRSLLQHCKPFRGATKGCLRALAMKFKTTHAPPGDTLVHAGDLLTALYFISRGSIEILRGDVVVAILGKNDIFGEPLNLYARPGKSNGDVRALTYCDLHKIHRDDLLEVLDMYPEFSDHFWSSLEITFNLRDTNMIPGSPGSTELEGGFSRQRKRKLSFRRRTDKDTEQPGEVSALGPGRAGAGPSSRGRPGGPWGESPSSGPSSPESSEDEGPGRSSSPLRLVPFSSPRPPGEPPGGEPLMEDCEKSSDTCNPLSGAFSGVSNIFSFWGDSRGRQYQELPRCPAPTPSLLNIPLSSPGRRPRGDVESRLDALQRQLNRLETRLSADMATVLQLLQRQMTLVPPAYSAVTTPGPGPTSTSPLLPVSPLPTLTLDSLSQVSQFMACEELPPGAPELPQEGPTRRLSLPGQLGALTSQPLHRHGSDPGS
One number for each entry.

Consider the worked cases shown below.
# COMPOUND SMILES, IC50 ratio hERG/mPGEs-1
data = [
    ("Cc1cc2c(cc1Cl)nc(N1CCC(C(=O)N[C@@H]3CCOC3)CC1)n2-c1ccc(C(F)(F)F)cn1", 328),
    ("Cc1cc2nc(N3CCC(C(=O)N[C@@H]4CCOC4)CC3)n(-c3ccc(C(F)(F)F)cn3)c2cc1Cl", 304),
    ("O=C(N[C@@H]1CCOC1)C1CCN(c2nc3cc(Cl)c(Cl)cc3n2-c2cccc(C(F)(F)F)n2)CC1", 88),
]

Turning now to a further compound:
Q: Look at this compound and give its reported IC50 ratio hERG/mPGEs-1. "Cc1cc2c(cc1Cl)nc(N1CCC(C(=O)N[C@H]3COC[C@@H]3O)CC1)n2-c1cccc(C(F)(F)F)n1"
Ans: 1000
